target: Prostaglandin E synthase (Homo sapiens, UniProt O14684); test: Inhibition of human mPGES1 in IL-1-beta-stimulated human RASF cells assessed as blockade of PGH2 to PGE2 conversion after 50 mins by ELISA; assay type: cell-based
Sequence (O14684 whole entry): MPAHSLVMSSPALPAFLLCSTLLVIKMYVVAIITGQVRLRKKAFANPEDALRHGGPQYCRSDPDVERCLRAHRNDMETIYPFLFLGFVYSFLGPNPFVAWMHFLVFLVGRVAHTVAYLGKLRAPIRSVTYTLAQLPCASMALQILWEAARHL
measuredEndpoint: IC50 (nM)
Report as a plain number; the unit nM is understood.

Enquiry: // query IC50 value for entry O=C(Nc1ccc(-c2ccc(Cl)c(Cl)c2)cc1)C1=C(O)c2ccccc2S(=O)(=O)N1
Return: 500

----------
Target: Prostaglandin G/H synthase 2 (Homo sapiens, UniProt P35354)
Sequence (P35354 whole entry): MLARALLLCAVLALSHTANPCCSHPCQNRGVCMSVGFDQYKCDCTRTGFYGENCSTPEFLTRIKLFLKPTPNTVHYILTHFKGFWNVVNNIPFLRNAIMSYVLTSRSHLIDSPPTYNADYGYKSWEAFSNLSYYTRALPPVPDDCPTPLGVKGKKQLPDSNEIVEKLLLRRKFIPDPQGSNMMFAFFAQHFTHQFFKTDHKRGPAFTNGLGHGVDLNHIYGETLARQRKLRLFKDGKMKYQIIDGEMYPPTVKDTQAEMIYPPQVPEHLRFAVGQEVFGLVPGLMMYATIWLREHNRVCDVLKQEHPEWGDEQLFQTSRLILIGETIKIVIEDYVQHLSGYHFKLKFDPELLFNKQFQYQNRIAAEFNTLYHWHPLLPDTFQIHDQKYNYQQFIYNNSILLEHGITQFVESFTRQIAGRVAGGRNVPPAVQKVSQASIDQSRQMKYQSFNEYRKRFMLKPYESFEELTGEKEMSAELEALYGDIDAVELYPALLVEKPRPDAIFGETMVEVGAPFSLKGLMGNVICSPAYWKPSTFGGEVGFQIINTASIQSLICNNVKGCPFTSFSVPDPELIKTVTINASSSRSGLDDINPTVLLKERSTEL
Experiment: Inhibition of human COX2 in IL1-beta treated human FF cells assessed as blockade of SnCl2-mediated PGH2 to PGF2alpha conversion after 50 mins by ELISA
Type: cell-based
pIC50: −log10 of the molar value.
measuredEndpoint: pIC50

Enquiry: Reported pIC50, compound O=C(Nc1cccc(C(=O)c2ccc(Cl)cc2)c1)C1=C(O)c2ccccc2S(=O)(=O)N1 : ____
Return: 4.02

Enquiry: For the compound shown here, O=C(Nc1ccc(-c2ccc(Cl)c(Cl)c2)cc1)C1=C(O)c2ccccc2S(=O)(=O)N1 , give the reported pIC50.
Return: < 4.00

Enquiry: Tell me the measured pIC50 of O=C(Nc1ccc(Oc2ccc(Cl)cc2)cc1)C1=C(O)c2ccccc2S(=O)(=O)N1 , please.
Return: 4.15

Enquiry: Name the reported pIC50 value associated with the compound O=C(Nc1ccc(-c2ccc(Cl)c(Cl)c2)cc1)C1=C(O)c2cc(O)ccc2S(=O)(=O)N1
Return: < 4.00

Enquiry: Return reported pIC50; argument: O=C(Nc1ccc(C(=O)c2ccc(Cl)cc2)c(Cl)c1)C1=C(O)c2ccccc2S(=O)(=O)N1
Return: 4.02

Enquiry: Sample O=C(Nc1ccc(Nc2ccc(Cl)cc2)cc1)C1=C(O)c2ccccc2S(=O)(=O)N1 — what was its pIC50?
Return: < 4.00

Enquiry: Quick one: pIC50 of O=C(CNS(=O)(=O)c1ccccc1C(=O)O)Nc1ccc(-c2ccc(Cl)c(Cl)c2)cc1 ?
Return: < 4.00

Enquiry: What does the data say about its pIC50? Entry: COc1ccc2c(c1)C(O)=C(C(=O)Nc1ccc(-c3ccc(Cl)c(Cl)c3)cc1)NS2(=O)=O
Return: < 4.00

Enquiry: So what's the measured pIC50 for this one? O=C(Nc1ccc(-c2ccc(Cl)c(Cl)c2)cc1)C1NS(=O)(=O)c2ccccc2C1O (centres undefined)
Return: < 4.00

Enquiry: Would you mind telling me what pIC50 value was observed for Cc1ccc(-c2ccc(NC(=O)C3=C(O)c4ccccc4S(=O)(=O)N3)cc2)cc1 ?
Return: < 4.00

Enquiry: Fill in: pIC50 of O=C(Nc1ccc(-c2cccc(Cl)c2Cl)cc1)C1=C(O)c2ccccc2S(=O)(=O)N1 is ___
Return: 4.35

Enquiry: Endpoint output: pIC50 of O=C(Nc1ccccc1CCc1ccc(Cl)c(Cl)c1)C1=C(O)c2ccccc2S(=O)(=O)C1 . Value?
Return: < 4.05

Enquiry: Recorded pIC50 for O=C(Nc1ccc(-c2ccc(Cl)cc2Cl)cc1)C1=C(O)c2ccccc2S(=O)(=O)N1 , please?
Return: < 4.13

Enquiry: Query (compound): O=C(Nc1ccc(-c2cccc(Cl)c2)cc1)C1=C(O)c2ccccc2S(=O)(=O)N1 ; field requested: pIC50
Return: 4.13
